Biological target: T1, interleukin 8 (CXCL8) (100-175: Shenandoah Biotechnology, Inc.) (UniProt P10145 28-99)
T1 construct: the antibodies tested are mouse anti-human IL-8 antibodies; also called IL-8
T1 sequence (looked up): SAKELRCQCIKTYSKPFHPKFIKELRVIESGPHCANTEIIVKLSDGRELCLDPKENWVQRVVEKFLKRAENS
Assay: SPR (Biacore 8K), antigen immobilized on CM4 chip, antibody as analyte
Observable: pKd
Convention used: pKd is expressed as -log10 of the molar concentration.

Here are 2 binders together with their reported answers.
Binder	Measured Number
R4 variant of anti-IL-8 antibody (clone 166-1) (Fab, V domains shown, not shown: a dimerising Fc or GST, Light chain positions 63, 65, 67, 70 (Chothia) changed to Arg; Fab) VH: EVKLVESGGGLVKPGGSLKLSCAASGFTFNNYAMSWVRQTPEKRLEWVASISSGGNTYYPDSVKGRFTLSRDNARNILYLQMSRLRSEDTAMYYCARDKLRLPNWYFDVWGAGTTVTVSS VL: DIVLTQSPPSLAVSLGQRATISCKASQSVDYDGDSYMNWYQQKPGQPPKVLIYGASNLESGIPARFRGRGRGTRFTLNIYPVEEEDAATYYCQQSNEDPPTFGGGTKLEIKR	9.23
R5 variant of anti-IL-8 antibody (clone 166-1) (Fab, V domains shown, not shown: a dimerising Fc or GST, Light chain positions 63, 65, 67, 70, 72 (Chothia) changed to Arg; Fab) VH: EVKLVESGGGLVKPGGSLKLSCAASGFTFNNYAMSWVRQTPEKRLEWVASISSGGNTYYPDSVKGRFTLSRDNARNILYLQMSRLRSEDTAMYYCARDKLRLPNWYFDVWGAGTTVTVSS VL: DIVLTQSPPSLAVSLGQRATISCKASQSVDYDGDSYMNWYQQKPGQPPKVLIYGASNLESGIPARFRGRGRGTRFRLNIYPVEEEDAATYYCQQSNEDPPTFGGGTKLEIKR	9.41

Now consider a different binder.
[Q] Fill in the blank: the reported pKd of R3 variant of anti-IL-8 antibody (clone 166-1) (Fab, V domains shown, not shown: a dimerising Fc or GST, Light chain positions 63, 65, 67 (Chothia) changed to Arg; Fab) VH: EVKLVESGGGLVKPGGSLKLSCAASGFTFNNYAMSWVRQTPEKRLEWVASISSGGNTYYPDSVKGRFTLSRDNARNILYLQMSRLRSEDTAMYYCARDKLRLPNWYFDVWGAGTTVTVSS VL: DIVLTQSPPSLAVSLGQRATISCKASQSVDYDGDSYMNWYQQKPGQPPKVLIYGASNLESGIPARFRGRGRGTDFTLNIYPVEEEDAATYYCQQSNEDPPTFGGGTKLEIKR is ____.
[A] 8.93

All values here come from patent US20230091175A1.
